B1: ZNF8 (parent)
chain: VHVIGVEEPSVGASMLFDIREST

variants of: B1; test: protein stability index of a GFP-peptide fusion (GPS, HEK-293T) (PSI 1-6); higher = more stable; conditions: c terminus: native;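 note: lentivirally expressed fusions sorted by FACS into six bins by GFP to DsRed ratio, PSI derived from sequencing read proportions per bin multiplied by bin number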
ASSAY_METRIC: protein stability index

* R20K | 2.4
* T23C | 1.76
* E7I | 1.7
* E8R | 1.89
* E7F | 3.54
* E7V | 2.84
* R20Y | 1.81
* H2P | 3.59
* V11Y | 1.92
* V11W | 1.44
* G5K | 1.95
* V11N | 2.35
* S10I | 2.91
* T23R | 2.63
* R20P | 2.48
* T23I | 1.69
* A13V | 1.87
* H2G | 3.35
* M15D | 2.93
* G5Y | 2.35
* R20E | 3.26
* G5M | 2.84
* V6W | 1.76
* G12F | 2.1
* T23Q | 2.09
* S22C | 2.52
* E8T | 1.73
* V3L | 1.88
* R20W | 2.43
* I4V | 2.54
* L16I | 2.06
* P9N | 2.27
* I4W | 1.94
* S14Y | 2.78
* P9W | 3.09
* S22M | 2.55
* E7R | 1.33
* E8M | 1.95
* G5F | 2.47
* G5R | 1.61
* A13T | 1.93
* L16T | 2.44
* S22T | 2.35
* E7S | 1.94
* I4L | 2.51
* V6D | 3.75
